These measurements were taken from paper PMC12865133.

Biological target: T1, 14-3-3β (UniProt P31946 1-246)
T1 construct: 14-3-3 protein, beta isoform; also called 14-3-3 protein
T1 sequence (looked up): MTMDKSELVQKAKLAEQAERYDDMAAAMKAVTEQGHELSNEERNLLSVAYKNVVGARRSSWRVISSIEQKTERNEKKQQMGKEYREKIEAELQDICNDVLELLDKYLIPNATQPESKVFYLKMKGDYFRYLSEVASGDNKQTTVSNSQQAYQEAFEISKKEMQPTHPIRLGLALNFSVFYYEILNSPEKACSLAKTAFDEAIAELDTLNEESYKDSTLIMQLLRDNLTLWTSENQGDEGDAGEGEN
Assay: fluorescence polarisation; two-dimensional fluorescence anisotropy; 14-3-3β titrated to FITC-labeled F1, F2, F3, F4 or pepD (10 nM) with varying concentrations of ChREBP peptide; fitted to a thermodynamic cooperativity model with KD II fixed at 1.5 µM; n = 2
Conditions: both partners purified
quantity: pKd
Schema: pKd number; meaning minus log10 of the concentration expressed in molar units.

IN: # get_value(readout='pKd', item= SFSXFKXK (not fully specified; fluorescein isothiocyanate (FITC) on the side chain of the first lysine; β-alanine after it; phosphoserine; triazole from azido phenylalanine (replacing Nph(+1)) cyclised to the backbone amide nitrogen between Lys(+5) and Nph(+4), linker x = 1; β-homoSer(+2); β-Ala(+3); 4-nitrophenylalanine Nph(+4)) [macrocycle F1] )
OUT: 4.14
